tested on: Cotton Aphid (Aphis gossypii); assay: Insecticidal test for cotton aphid in a foliar spray assay; format: in vivo; conditions: 72 h, 200 ppm foliar spray on squash or cotton seedlings, live aphids counted after three days, Abbott's corrected % control, read-out: APHIGO % Ctrl @ 200 ppm
inhibition at 200 ppm: recorded values
MEASUREMENT KIND: inhibition at 200 ppm

> print(dat)
                                   molecule                subject.of.test  test.result
1           COCCC(=O)N(C)c1nnc(-c2cccnc2)s1  Cotton Aphid (Aphis gossypii)   80 to 100%
2          CSCCCN(C(C)=O)c1nnc(-c2cccnc2)s1  Cotton Aphid (Aphis gossypii)     0 to 80%
3  CN(C(=O)C(C)(C)CS(C)(=O)=NC#N)c1nnc(-c2cccnc2)s1 (centres unmarked)  Cotton Aphid (Aphis gossypii)     0 to 80%
4        CS/C=C/C(=O)N(C)c1nnc(-c2cccnc2)s1  Cotton Aphid (Aphis gossypii)     0 to 80%
5           CSCCC(=O)N(C)c1nnc(-c2ccncc2)s1  Cotton Aphid (Aphis gossypii)     0 to 80%

###

melting point: recorded values
MEASUREMENT KIND: melting point

> print(dat)
                                   molecule    test.result
1  CSCC1(C(=O)N(C)c2nnc(-c3cccnc3)s2)CC1 [Compound 44]  144 to 147 °C
2  CSCC(C)(C)C(=O)Nc1nnc(-c2cccnc2)s1 [Compound 35]  182 to 188 °C
3  COCCCC(=O)N(C)c1nnc(-c2cccnc2)s1 [Compound 19]    92 to 95 °C
4  CC(=O)CCC(=O)N(C)c1nnc(-c2cccnc2)s1 [Compound 49]  146 to 147 °C
5  CSCCC(=O)N(C)c1nnc(-c2cccnc2)s1 [Compound 1]   99 to 101 °C
6  CN(C(=O)C1(CS(C)(=O)=O)CC1)c1nnc(-c2cccnc2)s1 [Compound 46]  208 to 212 °C
7  CC(=O)SCCC(=O)N(C)c1nnc(-c2cccnc2)s1 [Compound 26]  133 to 135 °C
8  CCS(=O)(=O)C(C)CC(=O)N(C)c1nnc(-c2cccnc2)s1 (stereo not drawn) [Compound 43]  175 to 177 °C
9  CSCC(C)(C)C(=O)N(C)c1nnc(-c2cccnc2)s1 [Compound 24]    89 to 91 °C

###

melting point: recorded values
MEASUREMENT KIND: melting point

> print(dat)
                                    compound  measurement.kind    test.result
 1  C=CCSCC(C)C(=O)N(C)c1nnc(-c2cccnc2)s1 (centres unmarked)     melting point    43 to 46 °C
 2  CN(C(=O)OCCS(C)(=O)=O)c1nnc(-c2cccnc2)s1     melting point  198 to 200 °C
 3  CN(C(=O)CCNC(=O)OC(C)(C)C)c1nnc(-c2cccnc2)s1     melting point    41 to 48 °C
 4  CN(C(=O)C(C)(C)CO[Si](C)(C)C(C)(C)C)c1nnc(-c2cncc(F)c2)s1     melting point  102 to 105 °C
 5    CSCCC(=O)N(c1ccccc1)c1nnc(-c2cccnc2)s1     melting point  117 to 120 °C
 6  CN(C(=O)CC[S+](C)[O-])c1nnc(-c2cccnc2)s1 (centres unmarked)     melting point  138 to 140 °C
 7           COCCC(=O)N(C)c1nnc(-c2cccnc2)s1     melting point  92 to 97.5 °C
 8               CCOC(=O)Nc1nnc(-c2cccnc2)s1     melting point  127 to 132 °C
 9  CN(C(=O)CSCc1ccccc1)c1nnc(-c2cncc(F)c2)s1     melting point  145 to 147 °C
10     CCOC(=O)CCC(=O)N(C)c1nnc(-c2cccnc2)s1     melting point  137 to 139 °C
11  CSCC(C)(C#N)C(=O)N(C)c1nnc(-c2cncc(F)c2)s1 (centres unmarked)     melting point  109 to 111 °C
12   CN(C(=O)CCSCc1ccccc1)c1nnc(-c2cccnc2)s1     melting point  116 to 118 °C
13  CSCC(C)(C)C(=O)OCC(C)(C)C(=O)N(C)c1nnc(-c2cncc(F)c2)s1     melting point    90 to 93 °C
14       CSCCOC(=S)N(C)c1nnc(-c2cncc(F)c2)s1     melting point  150 to 152 °C
15            CCOC(=O)N(C)c1nnc(-c2cccnc2)s1     melting point  162 to 164 °C
16       CSCCNC(=O)N(C)c1nnc(-c2cncc(F)c2)s1     melting point  100 to 104 °C
17  CSCC(C)(CN)C(=O)N(C)c1nnc(-c2cncc(F)c2)s1 (centres unmarked)     melting point  154 to 157 °C
18  COC(=O)CCC(=O)N(c1ccccc1)c1nnc(-c2cccnc2)s1     melting point  152 to 155 °C
19  CSCC(C)C(=O)Nc1nnc(-c2cccnc2)s1 (centres unmarked)     melting point         176 °C
20   CN(C(=O)CCS(C)(=O)=O)c1nnc(-c2cccnc2)s1     melting point  199 to 201 °C
